test system: Staphylococcus aureus; test: Antimicrobial activity against Staphylococcus aureus Sau 1862 assessed as inhibition of bacterial growth incubated for 16 to 18 hrs by broth micro dilution technique; type: functional; conditions: time 16-18 hrs
I'd appreciate it if you could supply MIC values for the items below.

CC(C)[C@H]1C(=O)O[C@H](C)[C@H](NC(=O)c2c3nc4c(C(=O)N[C@@H]5C(=O)N[C@H](C(C)C)C(=O)N6CCC[C@H]6C(=O)N(CO)CC(=O)N(C)[C@@H](C(C)C)C(=O)O[C@@H]5C)ccc(Br)c4oc-3c(Br)c(=O)c2N)C(=O)N[C@H](C(C)C)C(=O)N2CCC[C@H]2C(=O)N(C)CC(=O)N1C | 32 µg/mL
CC(C)[C@H]1C(=O)O[C@H](C)[C@H](NC(=O)c2c3nc4c(C(=O)N[C@@H]5C(=O)N[C@H](C(C)C)C(=O)N6CCC[C@H]6C(=O)N(C)CC(=O)N(C)[C@@H](C(C)C)C(=O)O[C@@H]5C)ccc(F)c4oc-3c(F)c(=O)c2N)C(=O)N[C@H](C(C)C)C(=O)N2CCC[C@H]2C(=O)N(C)CC(=O)N1C | 32 µg/mL

// recorded MIC for CC(C)[C@H]1C(=O)O[C@H](C)[C@H](NC(=O)c2c3nc4c(C(=O)N[C@@H]5C(=O)N[C@H](C(C)C)C(=O)N6CCC[C@H]6C(=O)N(C)CC(=O)N(C)[C@@H](C(C)C)C(=O)O[C@@H]5C)ccc(Br)c4oc-3c(Br)c(=O)c2N)C(=O)N[C@H](C(C)C)C(=O)N2CCC[C@H]2C(=O)N(C)CC(=O)N1C : 8 µg/mL

====

system: L02; test: Cytotoxicity against human L02 cells assessed as growth inhibition incubated for 68 hrs by MTT assay; format: cell-based; conditions: L02, 68 h
I'd appreciate it if you could supply pIC50 values for the items below.
Numbers only, as −log10 of the molar value.

CC(C)[C@H]1C(=O)O[C@H](C)[C@H](NC(=O)c2c3nc4c(C(=O)N[C@@H]5C(=O)N[C@H](C(C)C)C(=O)N6CCC[C@H]6C(=O)N(C)CC(=O)N(C)[C@@H](C(C)C)C(=O)O[C@@H]5C)ccc(Br)c4oc-3c(Br)c(=O)c2N)C(=O)N[C@H](C(C)C)C(=O)N2CCC[C@H]2C(=O)N(C)CC(=O)N1C | 4.75
COc1c2oc3c(OC)ccc(C(=O)N[C@@H]4C(=O)N[C@H](C(C)C)C(=O)N5CCC[C@H]5C(=O)N(C)CC(=O)N(C)[C@@H](C(C)C)C(=O)O[C@@H]4C)c3nc-2c(C(=O)N[C@@H]2C(=O)N[C@H](C(C)C)C(=O)N3CCC[C@H]3C(=O)N(C)CC(=O)N(C)[C@@H](C(C)C)C(=O)O[C@@H]2C)c(N)c1=O | 5.41

API: the following record is the query input.
// recorded pIC50 for CC(C)[C@H]1C(=O)O[C@H](C)[C@H](NC(=O)c2c3nc4c(C(=O)N[C@@H]5C(=O)N[C@H](C(C)C)C(=O)N6CCC[C@H]6C(=O)N(C)CC(=O)N(C)[C@@H](C(C)C)C(=O)O[C@@H]5C)ccc(Cl)c4oc-3c(Cl)c(=O)c2N)C(=O)N[C@H](C(C)C)C(=O)N2CCC[C@H]2C(=O)N(C)CC(=O)N1C : 5.34
